# ASSAY METHOD TEXT: Half life in dog at 0.5 mg/kg, iv
# Assay type: ADME, organism-based, Canis lupus familiaris
# Design: dose 0.5 mg/kg, route intravenous
# TEST CONDITIONS: in vivo
READOUT KIND: half-life
State the value, then name its unit.

Assign half-life to the following record: C[C@@]1(c2cc(F)cc(F)c2)CNC2(CCCC2)C(=O)N1CC(=O)Nc1cnc2c(c1)C[C@@]1(C2)C(=O)Nc2ncccc21
1.3 h

* * *

# ASSAY METHOD TEXT: Oral bioavailability in dog at 2 mg/kg
# Type: ADME, organism-based, Canis lupus familiaris
# TEST CONDITIONS: in vivo
READOUT KIND: bioavailability (%)
Response body: numeric value in %, unit text excluded.

Assign bioavailability to the following record: C[C@@]1(c2cc(F)cc(F)c2)CNC2(CCCC2)C(=O)N1CC(=O)Nc1cnc2c(c1)C[C@@]1(C2)C(=O)Nc2ncccc21
64

* * *

# ASSAY METHOD TEXT: Clearance in monkey at 0.5 mg/kg, iv
# Type: ADME, organism-based, Macaca mulatta
# Design: dose 0.5 mg/kg, route intravenous
# TEST CONDITIONS: rhesus monkey, in vivo
READOUT KIND: clearance
State the value, then name its unit.

Assign clearance to the following record: C[C@@]1(c2cc(F)cc(F)c2)CNC2(CCCC2)C(=O)N1CC(=O)Nc1cnc2c(c1)C[C@@]1(C2)C(=O)Nc2ncccc21
22 mL/min/kg

* * *

# TARGET SYSTEM: Calcitonin gene-related peptide type 1 receptor (Homo sapiens, UniProt O60894+Q16602)
# Sequence (Q16602 whole entry, one chain of several): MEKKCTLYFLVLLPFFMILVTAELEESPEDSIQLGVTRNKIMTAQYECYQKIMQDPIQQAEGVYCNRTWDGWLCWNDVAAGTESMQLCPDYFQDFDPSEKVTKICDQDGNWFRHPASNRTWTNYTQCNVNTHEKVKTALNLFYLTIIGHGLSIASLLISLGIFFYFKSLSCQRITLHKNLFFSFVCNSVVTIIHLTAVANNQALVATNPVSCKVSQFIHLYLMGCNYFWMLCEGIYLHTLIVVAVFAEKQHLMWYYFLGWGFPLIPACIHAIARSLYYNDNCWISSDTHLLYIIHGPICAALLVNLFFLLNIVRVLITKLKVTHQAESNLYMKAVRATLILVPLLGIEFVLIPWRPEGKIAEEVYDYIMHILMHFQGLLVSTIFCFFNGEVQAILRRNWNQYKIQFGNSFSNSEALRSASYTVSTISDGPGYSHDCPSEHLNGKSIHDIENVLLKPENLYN
# ASSAY METHOD TEXT: Displacement of [125I]CGRP from CGRP receptor in human SK-N-MC cells after 3 hrs
READOUT KIND: Ki (nM)
Response body: numeric value in nM, unit text excluded.

Assign Ki to the following record: C[C@@]1(c2cc(F)cc(F)c2)CNC2(CCCC2)C(=O)N1CC(=O)Nc1cnc2c(c1)C[C@@]1(C2)C(=O)Nc2ncccc21
0.052

* * *

Would you kindly list pKi for each of these compounds?
# ASSAY METHOD TEXT: Displacement of [125I]CGRP from CGRP receptor in rhesus monkey cerebellum after 3 hrs
# Type: tissue-based, Macaca mulatta
Here pKi is given on a logarithmic scale as minus log10 of the concentration in mol/L.

Assign pKi to the following record: O=C(CN1C(=O)C2(CCCC2)NC[C@H]1c1cc(F)cc(F)c1)Nc1ccc2c(c1)C[C@@]1(C2)C(=O)Nc2ncccc21
10.62

Assign pKi to the following record: C[C@@]1(c2cc(F)cc(F)c2)CNC2(CCCC2)C(=O)N1CC(=O)Nc1cnc2c(c1)C[C@@]1(C2)C(=O)Nc2ncccc21
10.23

* * *

# ASSAY METHOD TEXT: Fraction unbound in rat plasma
# Type: ADME, cell-free
READOUT KIND: fraction unbound
Field format: numeric only.

Assign fraction unbound to the following record: CC[C@@]1(c2cc(F)cc(F)c2)CNC2(CCCC2)C(=O)N1CC(=O)Nc1cnc2c(c1)C[C@@]1(C2)C(=O)Nc2ncccc21
0.033

Assign fraction unbound to the following record: C[C@@]1(c2cc(F)cc(F)c2)CNC2(CCCC2)C(=O)N1CC(=O)Nc1ccc2c(c1)C[C@@]1(C2)C(=O)Nc2ncccc21
0.061

Assign fraction unbound to the following record: O=C(CN1C(=O)C2(CCCC2)NC[C@H]1c1cc(F)cc(F)c1)Nc1cnc2c(c1)C[C@@]1(C2)C(=O)Nc2ncccc21
0.0096

Assign fraction unbound to the following record: O=C(CN1C(=O)C2(CCCC2)NC[C@H]1c1cc(F)cc(F)c1)Nc1ccc2c(c1)C[C@@]1(C2)C(=O)Nc2ncccc21
0.0084

Assign fraction unbound to the following record: O=C(CN1C(=O)C2(CCCC2)NC[C@H]1c1cc(F)c(Cl)c(F)c1)Nc1cnc2c(c1)C[C@@]1(C2)C(=O)Nc2ncccc21
0.0057

Assign fraction unbound to the following record: C[C@@]1(c2cc(F)cc(F)c2)CNC2(CCCC2)C(=O)N1CC(=O)Nc1cnc2c(c1)C[C@@]1(C2)C(=O)Nc2ncccc21
0.23

Assign fraction unbound to the following record: C[C@@]1(c2cc(F)c(Cl)c(F)c2)CNC2(CCCC2)C(=O)N1CC(=O)Nc1cnc2c(c1)C[C@@]1(C2)C(=O)Nc2ncccc21
0.034

* * *

# ASSAY METHOD TEXT: Clearance in dog at 0.5 mg/kg, iv
# Format: ADME, organism-based, Canis lupus familiaris
# Parameters: dose 0.5 mg/kg, route intravenous
# TEST CONDITIONS: in vivo
READOUT KIND: clearance (mL/min/kg)
Response body: numeric value in mL/min/kg, unit text excluded.

Assign clearance to the following record: C[C@@]1(c2cc(F)cc(F)c2)CNC2(CCCC2)C(=O)N1CC(=O)Nc1cnc2c(c1)C[C@@]1(C2)C(=O)Nc2ncccc21
7.2

* * *

# ASSAY METHOD TEXT: Displacement of [125I]CGRP from rabbit CGRP receptor
# Parameters: species or system Oryctolagus cuniculus
READOUT KIND: Ki (µM)
Response body: numeric value in µM, unit text excluded.

Assign Ki to the following record: C[C@@]1(c2cc(F)cc(F)c2)CNC2(CCCC2)C(=O)N1CC(=O)Nc1cnc2c(c1)C[C@@]1(C2)C(=O)Nc2ncccc21
0.015

* * *

# ASSAY METHOD TEXT: Half life in mouse at 2 mg/kg, iv
# Assay type: ADME, organism-based
# Set-up: dose 2 mg/kg, route intravenous
# TEST CONDITIONS: in vivo
READOUT KIND: half-life (h)
Response body: numeric value in h, unit text excluded.

Assign half-life to the following record: C[C@@]1(c2cc(F)cc(F)c2)CNC2(CCCC2)C(=O)N1CC(=O)Nc1cnc2c(c1)C[C@@]1(C2)C(=O)Nc2ncccc21
1.1

* * *

# ASSAY METHOD TEXT: Oral bioavailability in rat at 50 mg/kg
# Assay type: ADME, organism-based
# TEST CONDITIONS: in vivo
READOUT KIND: bioavailability (%)
Response body: numeric value in %, unit text excluded.

Assign bioavailability to the following record: C[C@@]1(c2cc(F)cc(F)c2)CNC2(CCCC2)C(=O)N1CC(=O)Nc1cnc2c(c1)C[C@@]1(C2)C(=O)Nc2ncccc21
15

* * *

# ASSAY METHOD TEXT: Oral bioavailability in mouse at 10 mg/kg
# Format: ADME, organism-based
# TEST CONDITIONS: in vivo
READOUT KIND: bioavailability (%)
Response body: numeric value in %, unit text excluded.

Assign bioavailability to the following record: C[C@@]1(c2cc(F)cc(F)c2)CNC2(CCCC2)C(=O)N1CC(=O)Nc1cnc2c(c1)C[C@@]1(C2)C(=O)Nc2ncccc21
1.3

* * *

# ASSAY METHOD TEXT: Clearance in mouse at 2 mg/kg, iv
# Assay type: ADME, organism-based
# Design: dose 2 mg/kg, route intravenous
# TEST CONDITIONS: in vivo
READOUT KIND: clearance (mL/min/kg)
Response body: numeric value in mL/min/kg, unit text excluded.

Assign clearance to the following record: C[C@@]1(c2cc(F)cc(F)c2)CNC2(CCCC2)C(=O)N1CC(=O)Nc1cnc2c(c1)C[C@@]1(C2)C(=O)Nc2ncccc21
26

* * *

# ASSAY METHOD TEXT: Aqueous solubility of the compound in citrate buffer at pH 2
# Assay type: physicochemical
READOUT KIND: solubility (mg/mL)
Response body: numeric value in mg/mL, unit text excluded.

Assign solubility to the following record: C[C@@]1(c2cc(F)cc(F)c2)CNC2(CCCC2)C(=O)N1CC(=O)Nc1cnc2c(c1)C[C@@]1(C2)C(=O)Nc2ncccc21
33

* * *

# ASSAY METHOD TEXT: Oral bioavailability in monkey at 2 mg/kg
# Assay type: ADME, organism-based, Macaca mulatta
# TEST CONDITIONS: rhesus monkey, in vivo
READOUT KIND: bioavailability (%)
Response body: numeric value in %, unit text excluded.

Assign bioavailability to the following record: C[C@@]1(c2cc(F)cc(F)c2)CNC2(CCCC2)C(=O)N1CC(=O)Nc1cnc2c(c1)C[C@@]1(C2)C(=O)Nc2ncccc21
7
